Overview of recorded Cmax for various molecules
Experiment: Pharmacokinetic experiment in SD rats after oral administration
Format: in vivo
Conditions: male, Sprague-Dawley (SD), rat, po, 5 mg/kg, plasma, read-out: Plasma concentration Cmax
quantity kind: Cmax

1. C=CC(=O)N1CC[C@H](n2nc(C#Cc3cc4ncn(C5CC5)c4cc3Cl)c3c(N)ncc(C(=O)CC)c32)C1 [Example 45]
290 ng/mL
2. C=CC(=O)N1CC[C@H](n2nc(C#Cc3ccc4oc(C5CC5)nc4c3)c3c(N)ncc(C(C)=O)c32)C1 [Example 70]
287 ng/mL
3. C=CC(=O)N1CC[C@H](n2nc(C#Cc3ccc4cn(CC)nc4c3)c3c(N)ncc(C(C)=O)c32)C1 [Example 85]
394 ng/mL

---

Test system: BaF3 FGFR2-BICC1 V564F cells
Test: CellTiter-Glo cell proliferation inhibition, BaF3 FGFR2-BICC1 V564F
Assay type: cell-based
Details: Mus musculus, 72 h, read-out: BaF3 FGFR2-BICC1 V564F inhibitory activity IC50
quantity kind: IC50

1) C=CC(=O)N1CC[C@H](n2nc(C#Cc3ccc4c(c3)ncn4C)c3c(N)ncc(C(=O)C(C)C)c32)C1
2.8 nM
2) C=CC(=O)N1CC[C@H](n2nc(C#Cc3ccc4c(c3)nc(C)n4C3CC3)c3c(N)ncc(C(C)=O)c32)C1
4.9 nM
3) C=CC(=O)N1CC[C@H](n2nc(C#Cc3ccc4c(c3)ncn4CC)c3c(N)ncc(C(=O)C(C)C)c32)C1
4 nM

The measurements presented in this section are drawn from patent US20250152564A1.
